Listed here: items and their measured conversion to 1,5-cz-[Ln(Lig)], Lu^III.
Assay: Formation of 1,5-cz-[Ln(Lig)] from Lig and Ln^III ions (metal dependent click-zip), MOPS/NaOH buffer pH 7.0, analytical HPLC (Charts 1, 2)
Settings: Lu^III; after 1 week at 80° C.; MOPS/NaOH buffer pH 7.0
Use % as the unit, but write only the number.

Consider the worked cases shown below.
1) C#Cc1cccc(CN2CCN(CC(N)=O)CCN(Cc3cc(-c4ccccc4)cc(CN=[N+]=[N-])n3)CCN(CC(N)=O)CC2)n1: 0
2) C#Cc1cccc(CN2CCN(CP(=O)(O)OCC)CCN(Cc3cccc(CN=[N+]=[N-])n3)CCN(CP(=O)(O)OCC)CC2)n1: 26
3) [N-]=[N+]=NCc1cc(-c2ccccc2)cc(CN2CCN(CC(=O)O)CCN(Cc3cccc(C#CCN)n3)CCN(CC(=O)O)CC2)n1: 96

GET /values?readout=conversion to 1,5-cz-[Ln(Lig)], Lu^III&item= `C#CCN(CC#C)CCN1CCN(CC(=O)O)CCN(Cc2cc(-c3ccccc3)cc(CN=[N+]=[N-])n2)CCN(CC(=O)O)CC1`
7

Consider the molecule shown here: `CC(C)(N)C#Cc1cccc(CN2CCN(CC(=O)O)CCN(Cc3cc(-c4ccccc4)cc(CN=[N+]=[N-])n3)CCN(CC(=O)O)CC2)n1` What is its recorded conversion to 1,5-cz-[Ln(Lig)], Lu^III?
98

Report conversion to 1,5-cz-[Ln(Lig)], Lu^III for `[N-]=[N+]=NCc1cccc(CN2CCN(CC(=O)O)CCN(Cc3cccc(C#Cc4ccccc4)n3)CCN(CC(=O)O)CC2)n1` please.
94

Fill in the blank: the reported conversion to 1,5-cz-[Ln(Lig)], Lu^III of `CC(C)(C)C#Cc1cccc(CN2CCN(CC(=O)O)CCN(Cc3cccc(CN=[N+]=[N-])n3)CCN(CC(=O)O)CC2)n1` is ____.
99

###

Experiment: Formation of 1,5-cz-[M(Lig)] from Lig and M^III ions (metal dependent click-zip) (Charts 4, 5)
Assay type: physicochemical
Conditions: 1 week at 80° C.; MOPS/NaOH buffer pH 7.0; TD728, TD827 in 50% i-PrOH; TD714 sum of two diastereoisomers
Assay Readout: conversion to 1,5-cz-[M(Lig)], Y^III (%)
Provide the reading as a plain figure in %.

# annotated cases, reported conversion to 1,5-cz-[M(Lig)], Y^III shown
1. [N-]=[N+]=NCc1cccc(CN2CCN(CC(=O)O)CCN(Cc3cccc(C#Cc4ccccc4)n3)CCN(CC(=O)O)CC2)n1: 63
2. CC(C)(C)C#Cc1cccc(CN2CCN(CC(=O)O)CCN(Cc3cccc(CN=[N+]=[N-])n3)CCN(CC(=O)O)CC2)n1: 82
3. C#Cc1cccc(CN2CCN(CP(=O)(O)OCC)CCN(Cc3cccc(CN=[N+]=[N-])n3)CCN(CP(=O)(O)OCC)CC2)n1: 68
4. C#Cc1cccc(CN2CCN(CC(=O)O)CCN(Cc3cccc(CN=[N+]=[N-])n3)CCN(CP(=O)(O)O)CC2)n1: 89
5. C#CCNC(=O)CN1CCN(CC(=O)O)CCN(Cc2cc(-c3ccccc3)cc(CN=[N+]=[N-])n2)CCN(CC(=O)O)CC1: 0

Endpoint output: conversion to 1,5-cz-[M(Lig)], Y^III of `CC(C)(N)C#Cc1cccc(CN2CCN(CC(=O)O)CCN(Cc3cc(-c4ccccc4)cc(CN=[N+]=[N-])n3)CCN(CC(=O)O)CC2)n1` . Value?
80

GET /values?readout=conversion to 1,5-cz-[M(Lig)], Y^III&item= `[N-]=[N+]=NCc1cccc(CN2CCN(CC(=O)O)CCN(Cc3cccc(C#CC45CC6CC(CC(C6)C4)C5)n3)CCN(CC(=O)O)CC2)n1`
87

###

Experiment: Formation of 1,5-cz-[Ln(Lig)] from Lig and Ln^III ions (metal dependent click-zip), MOPS/NaOH buffer pH 7.0, analytical HPLC (Charts 1, 2)
Conditions: Nd^III; after 1 week at 80° C.; MOPS/NaOH buffer pH 7.0
Assay Readout: conversion to 1,5-cz-[Ln(Lig)], Nd^III (%)
Only the number, expressed in %, is required.

For orientation, consider the following solved cases.
1. C#Cc1cccc(CN2CCN(CC(N)=O)CCN(Cc3cc(-c4ccccc4)cc(CN=[N+]=[N-])n3)CCN(CC(N)=O)CC2)n1 [TD779]: 0
2. [N-]=[N+]=NCc1cccc(CN2CCN(CC(=O)O)CCN(Cc3cccc(C#CC45CC6CC(CC(C6)C4)C5)n3)CCN(CC(=O)O)CC2)n1 [TD992]: 40
3. C#Cc1cccc(CN2CCN(CC(=O)O)CCN(Cc3cc(-c4ccccc4)cc(CN=[N+]=[N-])n3)CCN(CC(=O)O)CC2)n1 [TD647]: 79
4. C#Cc1cccc(CN2CCN(CC(=O)NCC(=O)O)CCN(Cc3cc(-c4ccccc4)cc(CN=[N+]=[N-])n3)CCN(CC(=O)NCC(=O)O)CC2)n1 [TD778]: 0
5. C#Cc1cccc(CN2CCN(CP(=O)(O)c3ccccc3)CCN(Cc3cccc(CN=[N+]=[N-])n3)CCN(CP(=O)(O)c3ccccc3)CC2)n1 [TD921]: 43

Give its conversion to 1,5-cz-[Ln(Lig)], Nd^III value. Item: C#Cc1cccc(CN2CCN(CC(=O)O)CCN(Cc3cc(C(=O)OC)cc(CN=[N+]=[N-])n3)CCN(CC(=O)O)CC2)n1 [TD1092]
0

###

Consider the following compounds and their measured conversion to 1,5-cz-Lig isomer, K^I readings.
Test: Alkali metal dependent formation of 1,5-cz-Lig and 1,4-cz-Lig isomers from Lig at pH 10.2 (Chart 14)
Type: physicochemical
Conditions: B: 1 day at 80° C.; Borate/(M^I)2CO3 buffer pH 10.2
Write the number in % without appending the unit.

1. C#Cc1cccc(CN2CCN(CP(=O)(O)O)CCN(Cc3cccc(CN=[N+]=[N-])n3)CCN(CP(=O)(O)O)CC2)n1 [TD581]: 7
2. C#Cc1cccc(CN2CCN(CP(=O)(O)c3ccccc3)CCN(Cc3cccc(CN=[N+]=[N-])n3)CCN(CP(=O)(O)c3ccccc3)CC2)n1 [TD921]: 23

What value of conversion to 1,5-cz-Lig isomer, K^I has been recorded for this entry: C#Cc1cccc(CN2CCN(CP(=O)(O)OCC)CCN(Cc3cccc(CN=[N+]=[N-])n3)CCN(CP(=O)(O)OCC)CC2)n1 [TD582]
11

Need conversion to 1,5-cz-Lig isomer, K^I, item C#Cc1cccc(CN2CCNCCN(Cc3cccc(CN=[N+]=[N-])n3)CCN(CC(=O)O)CC2)n1 [TD703]
14

Which measured conversion to 1,5-cz-Lig isomer, K^I value corresponds to C#CCNC(=O)CN1CCN(CC(=O)O)CCN(Cc2cc(-c3ccccc3)cc(CN=[N+]=[N-])n2)CCN(CC(=O)O)CC1 [TD425] ?
10

Item C#Cc1cccc(CN2CCN(CC(=O)O)CCN(Cc3cc(-c4ccccc4)cc(CN=[N+]=[N-])n3)CCN(CC(=O)O)CC2)n1 [TD647] has what recorded conversion to 1,5-cz-Lig isomer, K^I?
10

What does the data say about its conversion to 1,5-cz-Lig isomer, K^I? Entry: C#Cc1cccc(CN2CCN(CC(=O)O)CCN(Cc3cccc(CN=[N+]=[N-])n3)CCN(CP(=O)(O)O)CC2)n1 [TD714]
10

###

fraction of intact chelate listing for selected compounds.
Assay: Dissociation of chelates in aq. 0.1M HCl at RT (acid decomplexation kinetic inertness) (Chart 20)
Format: physicochemical
Settings: 1 month
Number in %, nothing else.

Study these solved cases before continuing.
1. O=C1C[N@@]2CC[N@]3CC[N@@](CC[N@](CC2)Cc2cccc(n2)-c2cnnn2Cc2cc(-c4ccccc4)cc(n2)C3)CC(=O)[O][Lu][O]1: 100
2. O=C1C[N@@]2CC[N@]3CC[N@@](CC[N@](CC2)Cc2cccc(n2)-c2cnnn2Cc2cc(-c4ccccc4)cc(n2)C3)CC(=O)[O][Er][O]1: 100

Next item in the queue.
Field request: fraction of intact chelate | item: `O=C1C[N@@]2CC[N@]3CC[N@@](CC[N@](CC2)Cc2cccc(n2)-c2cnnn2Cc2cc(-c4ccccc4)cc(n2)C3)CC(=O)[O][Sm][O]1`
96

###

Assay: Formation of 1,5-cz-[Ln(Lig)] from Lig and Ln^III ions (metal dependent click-zip), MOPS/NaOH buffer pH 7.0, analytical HPLC (Charts 1, 2)
Conditions: Yb^III; after 1 week at 80° C.; MOPS/NaOH buffer pH 7.0
Quick reference for conversion to 1,5-cz-[Ln(Lig)], Yb^III among some compounds

Completed entries (count: 5):
1) C#CCNC(=O)CN1CCN(CC(=O)O)CCN(Cc2cc(-c3ccccc3)cc(CN=[N+]=[N-])n2)CCN(CC(=O)O)CC1: 0%
2) [N-]=[N+]=NCc1cccc(CN2CCN(CC(=O)O)CCN(Cc3cccc(C#CI)n3)CCN(CC(=O)O)CC2)n1: 76%
3) C#Cc1cccc(CN2CCN(CC(=O)NCC(=O)O)CCN(Cc3cc(-c4ccccc4)cc(CN=[N+]=[N-])n3)CCN(CC(=O)NCC(=O)O)CC2)n1: 27%
4) [N-]=[N+]=NCc1cccc(CN2CCN(CC(=O)O)CCN(Cc3cccc(C#Cc4ccccc4)n3)CCN(CC(=O)O)CC2)n1: 95%
5) C#Cc1cccc(CN2CCN(CC(=O)O)CCN(Cc3cc(-c4ccc(C(=O)O)cc4)cc(CN=[N+]=[N-])n3)CCN(CC(=O)O)CC2)n1: 93%

What value of measured conversion to 1,5-cz-[Ln(Lig)], Yb^III is listed for `CC(C)(C)C#Cc1cccc(CN2CCN(CC(=O)O)CCN(Cc3cccc(CN=[N+]=[N-])n3)CCN(CC(=O)O)CC2)n1` ?
98%

Dear colleague, I am looking for the recorded conversion to 1,5-cz-[Ln(Lig)], Yb^III of the following compound: `C#Cc1cccc(CN2CCN(CC(=O)O)CCN(Cc3cc(C(F)(F)F)cc(CN=[N+]=[N-])n3)CCN(CC(=O)O)CC2)n1`
95%
